Biological target: CPT1A_C96 (Homo sapiens, UniProt P50416)
Construct: endogenous in cells; host or cells: 22Rv1
Sequence (P50416 whole entry): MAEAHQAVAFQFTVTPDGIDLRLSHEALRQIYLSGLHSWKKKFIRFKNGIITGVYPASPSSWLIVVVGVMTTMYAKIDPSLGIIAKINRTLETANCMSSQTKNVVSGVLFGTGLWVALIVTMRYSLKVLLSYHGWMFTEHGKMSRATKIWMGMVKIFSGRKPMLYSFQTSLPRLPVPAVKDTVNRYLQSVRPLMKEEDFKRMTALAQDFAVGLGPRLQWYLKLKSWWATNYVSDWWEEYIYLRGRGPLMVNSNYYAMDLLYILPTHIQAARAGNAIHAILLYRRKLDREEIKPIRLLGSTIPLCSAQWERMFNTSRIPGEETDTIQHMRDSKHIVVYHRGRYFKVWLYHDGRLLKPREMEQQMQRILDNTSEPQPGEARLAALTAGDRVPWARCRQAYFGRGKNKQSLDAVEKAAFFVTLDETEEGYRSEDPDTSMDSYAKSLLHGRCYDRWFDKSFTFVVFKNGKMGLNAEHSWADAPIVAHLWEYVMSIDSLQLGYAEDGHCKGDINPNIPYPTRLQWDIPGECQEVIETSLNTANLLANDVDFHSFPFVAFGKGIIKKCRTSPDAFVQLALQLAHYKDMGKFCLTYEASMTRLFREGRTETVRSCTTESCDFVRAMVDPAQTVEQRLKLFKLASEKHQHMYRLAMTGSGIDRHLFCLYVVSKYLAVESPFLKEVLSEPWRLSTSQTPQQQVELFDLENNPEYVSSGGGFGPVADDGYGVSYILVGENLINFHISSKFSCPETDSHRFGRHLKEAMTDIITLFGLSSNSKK
Test: IA-DTB cysteine engagement
Type: binding
Conditions: 22Rv1 cells, 20 μM probe, 1 h, relative to DMSO
Answer each item with its documented % engagement CPT1A_C96.
The reply should be a number in %, with the unit left off.

Recall the recorded % engagement CPT1A_C96 for C=CC(=O)N1C[C@H](c2ccc(Br)cc2)[C@@H]1C(=O)Nc1cccc2cccnc12 with CPT1A_C96 (Homo sapiens, UniProt P50416) and state it.
84.75

Moving on to C=CC(=O)N1C[C@H](c2ccc(Br)cc2)[C@H]1C(=O)Nc1cccc2cccnc12 [MY-3B]
93.5

Moving on to C=CC(=O)N1C[C@@H](c2ccc(Br)cc2)[C@H]1C(=O)Nc1cccc2cccnc12
87

Moving on to C=CC(=O)N1C[C@H](c2ccc(Br)cc2)[C@H]1C(=O)Nc1cccc2cccnc12 [MY-3A]
89.25

###

Answer each item with its documented % engagement TRPM4_C759.
Target: TRPM4_C759 (Homo sapiens)
Construct: endogenous in cells; host or cells: 22Rv1
Sequence (Q8TD43 whole entry): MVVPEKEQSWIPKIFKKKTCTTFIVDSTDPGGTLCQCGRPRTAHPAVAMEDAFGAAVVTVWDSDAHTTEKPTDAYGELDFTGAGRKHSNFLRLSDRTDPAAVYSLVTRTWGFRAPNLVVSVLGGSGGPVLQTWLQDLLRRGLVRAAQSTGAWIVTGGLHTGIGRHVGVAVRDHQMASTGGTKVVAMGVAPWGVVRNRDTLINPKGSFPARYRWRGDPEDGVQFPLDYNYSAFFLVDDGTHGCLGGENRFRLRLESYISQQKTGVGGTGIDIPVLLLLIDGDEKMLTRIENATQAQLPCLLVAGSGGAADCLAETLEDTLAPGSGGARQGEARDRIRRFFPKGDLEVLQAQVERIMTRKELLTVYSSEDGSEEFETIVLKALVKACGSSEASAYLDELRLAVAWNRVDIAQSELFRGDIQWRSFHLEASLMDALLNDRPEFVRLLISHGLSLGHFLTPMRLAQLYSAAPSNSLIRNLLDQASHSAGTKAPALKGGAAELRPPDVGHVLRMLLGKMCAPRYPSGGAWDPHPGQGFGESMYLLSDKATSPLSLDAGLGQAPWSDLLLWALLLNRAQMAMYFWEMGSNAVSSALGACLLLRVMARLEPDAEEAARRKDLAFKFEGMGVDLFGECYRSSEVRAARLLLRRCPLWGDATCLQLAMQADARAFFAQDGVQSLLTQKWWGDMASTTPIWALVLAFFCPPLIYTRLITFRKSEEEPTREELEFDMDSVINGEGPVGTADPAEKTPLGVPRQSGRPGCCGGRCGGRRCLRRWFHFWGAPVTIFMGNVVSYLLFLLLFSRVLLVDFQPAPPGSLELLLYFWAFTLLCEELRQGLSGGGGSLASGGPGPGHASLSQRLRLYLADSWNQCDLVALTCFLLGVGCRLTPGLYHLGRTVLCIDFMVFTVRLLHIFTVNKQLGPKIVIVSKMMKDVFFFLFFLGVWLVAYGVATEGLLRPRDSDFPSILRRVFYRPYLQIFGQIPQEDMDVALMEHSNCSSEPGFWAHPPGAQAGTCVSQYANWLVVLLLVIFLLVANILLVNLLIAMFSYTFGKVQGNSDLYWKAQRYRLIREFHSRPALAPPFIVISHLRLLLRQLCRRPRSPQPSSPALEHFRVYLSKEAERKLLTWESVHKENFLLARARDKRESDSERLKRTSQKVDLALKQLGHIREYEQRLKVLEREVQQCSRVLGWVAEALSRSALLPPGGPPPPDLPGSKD
Assay: IA-DTB cysteine engagement
Type: binding
Settings: 22Rv1 cells, 20 μM probe, 1 h, relative to DMSO
Description: Sample preparation: Cells (adherent: 15 cm dishes, suspension: 2 million cells/mL) were treated with electrophilic probes in situ for indicated times and concentrations, washed with ice-cold PBS, and flash frozen in liquid nitrogen. […] Whole cell lysates protein content was measured using a standard DC protein assay (Bio-Rad) and 500 μL (2 mg/mL protein content) were treated with 5 μL of 10 mM 1A-DTB (in DMSO) for 1 h at ambient temperature with occasional vortexing. […]
The reply should be a number in %, with the unit left off.

Record request: % engagement TRPM4_C759 value, item C=CC(=O)N1C[C@H](c2ccc(Br)cc2)[C@H]1C(=O)Nc1cccc2cccnc12 [MY-3A]
50.25

Moving on to C=CC(=O)N1C[C@H](c2ccc(Br)cc2)[C@H]1C(=O)Nc1cccc2cccnc12 [MY-3B]
76.25

Moving on to C=CC(=O)N1C[C@@H](c2ccc(Br)cc2)[C@H]1C(=O)Nc1cccc2cccnc12
69.75

Moving on to C=CC(=O)N1C[C@H](c2ccc(Br)cc2)[C@@H]1C(=O)Nc1cccc2cccnc12
48.75

###

Answer each item with its documented % engagement DENND2B_C804.
Molecular target: DENND2B_C804 (Homo sapiens, UniProt P78524)
Construct: endogenous in cells; host or cells: 22Rv1
Sequence (P78524 1-1137): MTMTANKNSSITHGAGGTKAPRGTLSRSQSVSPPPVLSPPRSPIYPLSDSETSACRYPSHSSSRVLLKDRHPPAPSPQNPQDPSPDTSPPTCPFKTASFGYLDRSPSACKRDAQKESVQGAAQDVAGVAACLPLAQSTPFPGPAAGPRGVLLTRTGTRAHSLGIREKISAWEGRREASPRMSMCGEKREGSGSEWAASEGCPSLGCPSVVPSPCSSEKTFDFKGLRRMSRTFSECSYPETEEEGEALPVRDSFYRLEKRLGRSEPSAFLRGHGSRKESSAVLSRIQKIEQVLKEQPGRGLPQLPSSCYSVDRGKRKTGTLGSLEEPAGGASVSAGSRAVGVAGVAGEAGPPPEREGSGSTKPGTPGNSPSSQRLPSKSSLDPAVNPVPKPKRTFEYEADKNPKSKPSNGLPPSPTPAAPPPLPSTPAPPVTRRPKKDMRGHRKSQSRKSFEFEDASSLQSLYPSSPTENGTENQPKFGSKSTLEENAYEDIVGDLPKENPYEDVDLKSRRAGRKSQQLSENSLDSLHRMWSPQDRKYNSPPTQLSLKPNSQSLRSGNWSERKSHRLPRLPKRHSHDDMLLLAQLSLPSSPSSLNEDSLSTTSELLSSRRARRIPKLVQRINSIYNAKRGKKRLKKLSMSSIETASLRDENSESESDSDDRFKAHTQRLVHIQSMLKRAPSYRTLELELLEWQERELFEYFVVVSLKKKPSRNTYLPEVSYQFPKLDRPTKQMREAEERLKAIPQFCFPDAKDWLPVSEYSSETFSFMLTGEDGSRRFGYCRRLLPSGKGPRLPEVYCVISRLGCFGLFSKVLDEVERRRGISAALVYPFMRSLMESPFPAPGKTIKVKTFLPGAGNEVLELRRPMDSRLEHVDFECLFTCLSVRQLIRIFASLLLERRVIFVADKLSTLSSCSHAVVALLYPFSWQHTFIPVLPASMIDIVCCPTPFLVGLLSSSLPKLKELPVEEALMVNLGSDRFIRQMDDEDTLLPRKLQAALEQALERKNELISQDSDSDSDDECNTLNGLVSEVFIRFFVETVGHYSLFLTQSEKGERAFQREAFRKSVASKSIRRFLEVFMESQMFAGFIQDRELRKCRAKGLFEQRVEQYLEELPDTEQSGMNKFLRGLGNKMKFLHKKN
Assay: IA-DTB cysteine engagement
Assay type: binding
Details: 22Rv1 cells, 20 μM probe, 1 h, relative to DMSO
The reply should be a number in %, with the unit left off.

Record request: % engagement DENND2B_C804 value, item C=CC(=O)N1C[C@H](c2ccc(Br)cc2)[C@H]1C(=O)Nc1cccc2cccnc12 [MY-3B]
−5.75

Moving on to C=CC(=O)N1C[C@@H](c2ccc(Br)cc2)[C@H]1C(=O)Nc1cccc2cccnc12
29.25

Moving on to C=CC(=O)N1C[C@H](c2ccc(Br)cc2)[C@@H]1C(=O)Nc1cccc2cccnc12
80.25

Moving on to C=CC(=O)N1C[C@H](c2ccc(Br)cc2)[C@H]1C(=O)Nc1cccc2cccnc12 [MY-3A]
−5.25
